- Experiment description: log P by HPLC on reversed-phase (C18) columns, OECD Guideline 117
- Assay type: physicochemical
- Assay conditions: acidic range, pH 2.7, 0.1% aqueous formic acid and acetonitrile
Quantity measured: LogP[a]

[[record]]
molecule = "Cn1cnn(-c2cnc3nc(-c4cccnc4)sc3c2)c1=S [Example 29]"
reported = 1.00

[[record]]
molecule = "CC[S+]([O-])c1ccc(-c2cnc3nc(-c4cccnc4)sc3c2)cc1 (stereo not drawn) [Example 12]"
reported = 1.58

[[record]]
molecule = "Clc1ccc(-c2cnc3nc(-c4cccnc4)sc3c2)cc1 [Example 8]"
reported = 2.98

